# assay target: ZFP SBS#1012 (synthetic)
# Sequence (chain, as listed by the source): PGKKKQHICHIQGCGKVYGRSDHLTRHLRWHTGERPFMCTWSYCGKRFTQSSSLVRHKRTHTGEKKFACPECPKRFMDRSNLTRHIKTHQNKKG
# test: EMSA
# experimental parameters: tags: MBP fusion
property label: Kd

Param item = GACGTAGGG (dsDNA) DNA 1: GACGTAGGG DNA 2: CCCTACGTC ; retrieve measured Kd. 0.032 nM

src = patent US20030068675
